Cited source for all entries: patent US20200164023A1

# Procedure summary: Laser-capture microdissection and LC/MS-MS drug quantification in liver lesions and surrounding tissue, mouse IAC model
# Assay type: in vivo
# Protocol conditions: female, CD1, mouse, in vivo, ip, 5 mg/kg, single IP dose 5 mg/kg; 6 hours post-dose; read-out: drug concentration in liver lesions
# Protocol: A mouse model of IAC was used for this study. Female six to eight week old CD1 mice (Charles River Laboratories) weighing 18-22 g were infected intraperitoneally (IP) with 1×10^7 CFU of C. albicans SC5314 mixed with sterile stool matrix as previously described. […] Mice were sacrificed just before antifungal treatment (n=1), and at 1, 3, 6, 24, and 48 hours post-dose (three mice per group per time point). […]
Numbered stars: 1 amine (or outer) side, 2 acyl side, 3 side chain; on linkers, the order of the positions; unused ones are H or OH. Bridge positions count the residues as written; N and C are the ends. Square brackets hold non-standard residues; d marks the D form. Peptide text beside a SMILES is read from it. * marks the point of attachment. hTyr(3S-OH,4S-OH,3'-OSO3H) = N[C@H](C(=O)O)[C@H](O)[C@@H](O)c1ccc(O)c(OS(=O)(=O)O)c1; Orn(4R-OH,5R-OH) = O=C([C@H](C[C@@H](O)[C@@H](O)N[*:3])N[*:1])[*:2]; Pro(3S-OH,4S-Me) = C[C@H]1CN[C@H](C(=O)O)[C@H]1O; X1 = CCCCCOc1ccc(-c2cc(-c3ccc(C(=O)*)cc3)no2)cc1; Gln(3R-OH) = NC(=O)C[C@@H](O)[C@H](N)C(=O)O; Hyp = O=C(O)[C@@H]1C[C@@H](O)CN1
Metric name: concentration at 6 h (ng/mL)

# Compound, Result number
measured = [
    ("CCCCCOc1ccc(-c2cc(-c3ccc(C(=O)N[C@H]4C[C@@H](O)[C@@H](O)NC(=O)[C@@H]5[C@@H](O)[C@@H](C)CN5C(=O)[C@H]([C@H](O)CC(N)=O)NC(=O)[C@H]([C@H](O)[C@@H](O)c5ccc(O)c(OS(=O)(=O)O)c5)NC(=O)[C@@H]5C[C@@H](O)CN5C(=O)[C@H]([C@@H](C)O)NC4=O)cc3)no2)cc1 [micafungin] (X1-[Orn(4R-OH,5R-OH)]T[Hyp][hTyr(3S-OH,4S-OH,3'-OSO3H)][Gln(3R-OH)][Pro(3S-OH,4S-Me)]; lactam 1-C)", 4900),
]
